Here, each record is paired with measured pIC50 data.
tested.on: Fatty-acid amide hydrolase 1 (Rattus norvegicus)
Sequence (P97612 whole entry): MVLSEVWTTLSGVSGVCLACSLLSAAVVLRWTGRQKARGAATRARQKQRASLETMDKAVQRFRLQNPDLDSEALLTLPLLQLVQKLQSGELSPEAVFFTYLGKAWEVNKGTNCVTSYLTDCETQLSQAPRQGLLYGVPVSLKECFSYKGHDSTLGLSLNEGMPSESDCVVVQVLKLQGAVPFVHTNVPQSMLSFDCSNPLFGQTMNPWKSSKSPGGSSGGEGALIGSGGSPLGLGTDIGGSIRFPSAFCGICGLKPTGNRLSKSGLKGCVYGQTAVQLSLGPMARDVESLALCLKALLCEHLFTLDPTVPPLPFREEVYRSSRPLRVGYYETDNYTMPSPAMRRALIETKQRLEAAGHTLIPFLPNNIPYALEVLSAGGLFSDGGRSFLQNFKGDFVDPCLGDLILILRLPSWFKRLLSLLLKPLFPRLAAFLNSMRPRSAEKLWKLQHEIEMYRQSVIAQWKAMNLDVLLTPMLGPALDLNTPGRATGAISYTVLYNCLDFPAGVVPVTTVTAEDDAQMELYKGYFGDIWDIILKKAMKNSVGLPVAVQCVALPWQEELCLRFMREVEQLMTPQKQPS
assay.text: Inhibition of rat recombinant His/GST-tagged FAAH expressed in Escherichia coli cells using AAMCA as substrate incubated for 15 mins followed by substrate addition and measured after every 20 mins for 4 hrs by fluorescence based assay
pIC50 is a log-scale quantity: -log10 of the concentration expressed in molar.

Some solved entries appear below for comparison.
smiles.code | endpoint.label | observed.value
CN(C)c1ccc(C2CCN(C(=O)Oc3cccc(N4CCS(=O)(=O)CC4)c3)CC2)cc1 | pIC50 | 8.16
O=C(Oc1cccc(N2CCS(=O)(=O)CC2)c1)N1CCN(c2ccccc2)CC1 | pIC50 | 8.10
COc1ccc(N2CCN(C(=O)Oc3cccc(N4CCS(=O)(=O)CC4)c3)[C@H](C)C2)cc1 | pIC50 | 8.13
O=C(Oc1cccc(N2CCS(=O)(=O)CC2)c1)N1CCC(c2ccccc2)CC1 | pIC50 | 8.22
O=C(Oc1cccc(N2CCS(=O)(=O)CC2)c1)N1CCC(c2ccc(N3CCCC3)cc2)CC1 | pIC50 | 8.20
CN(C)c1ccc(C2CCN(C(=O)Oc3cccc(N4CCOCC4)c3)CC2)cc1 | pIC50 | 7.83

Please examine the following record next.
In: Param readout= pIC50; system= Fatty-acid amide hydrolase 1 (Rattus norvegicus); entry= O=C(Oc1cccc(N2CCCCC2)c1)N1CCC(c2ccc(F)cc2)CC1 ; returns value.
Out: 8.17

* * *

tested.on: Fatty-acid amide hydrolase 1 (Homo sapiens)
Sequence (O00519 whole entry): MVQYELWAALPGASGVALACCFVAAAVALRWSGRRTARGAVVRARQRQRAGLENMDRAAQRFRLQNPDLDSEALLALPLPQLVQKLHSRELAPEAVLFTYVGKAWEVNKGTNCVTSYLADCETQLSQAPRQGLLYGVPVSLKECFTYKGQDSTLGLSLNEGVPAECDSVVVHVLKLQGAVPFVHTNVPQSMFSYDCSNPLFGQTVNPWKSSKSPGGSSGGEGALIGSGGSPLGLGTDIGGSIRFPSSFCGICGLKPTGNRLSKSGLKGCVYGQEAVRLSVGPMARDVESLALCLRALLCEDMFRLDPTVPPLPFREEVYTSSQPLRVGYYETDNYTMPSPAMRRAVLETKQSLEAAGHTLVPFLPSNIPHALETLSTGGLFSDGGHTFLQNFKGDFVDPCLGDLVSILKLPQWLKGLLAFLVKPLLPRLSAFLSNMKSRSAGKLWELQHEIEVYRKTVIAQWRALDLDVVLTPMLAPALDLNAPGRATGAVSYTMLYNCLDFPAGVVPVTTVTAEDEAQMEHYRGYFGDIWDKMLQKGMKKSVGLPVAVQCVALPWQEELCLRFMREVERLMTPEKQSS
assay.text: Inhibition of human recombinant MBP-tagged FAAH expressed in Escherichia coli cells using AAMCA as substrate incubated for 15 mins followed by substrate addition and measured after every 20 mins for 4 hrs by fluorescence based assay
endpoint.label: IC50 (nM)
Only the number, expressed in nM, is required.

Some solved entries appear below for comparison.
smiles.code | unit.abbreviation | IC50
O=C(Oc1cccc(N2CCS(=O)(=O)CC2)c1)N1CCN(c2ccccc2)CC1 | nM | 15
O=C(Oc1cccc(N2CCS(=O)(=O)CC2)c1)N1CCC(c2ccc(N3CCC3)cc2)CC1 | nM | 7.9

Please examine the following record next.
In: Param readout= IC50; system= Fatty-acid amide hydrolase 1 (Homo sapiens); entry= CN1CCN(c2cccc(OC(=O)N3CCC(c4ccc(F)cc4)CC3)c2)CC1 ; returns value.
Out: 33.2
